ASSAY_SYSTEM: HRgpA-6H (Porphyromonas gingivalis) (UniProt P28784)
ASSAY_EXPLANATION: ELISA, coated HRgpA-6H
Entry flag: Yes if OD450 nm reaches 0.8; No if it does not.

KB001 mouse Fab VL L55T (Fab, V domains shown) VH: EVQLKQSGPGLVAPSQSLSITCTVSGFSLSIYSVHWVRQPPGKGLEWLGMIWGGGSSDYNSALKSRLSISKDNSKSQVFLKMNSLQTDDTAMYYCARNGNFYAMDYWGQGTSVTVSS VL: QIVLTQSPAIMSASLGERVTMTCTASSSVSSSFLHWYQQKPGSSPQLWIYSTSNTASGVPARFSGSGSGTSYSLTISSMEAEDAATYYCHQYHHSPYIYTFGGGTKLEIK
No
KB001 mouse Fab VL S27L (Fab, V domains shown) VH: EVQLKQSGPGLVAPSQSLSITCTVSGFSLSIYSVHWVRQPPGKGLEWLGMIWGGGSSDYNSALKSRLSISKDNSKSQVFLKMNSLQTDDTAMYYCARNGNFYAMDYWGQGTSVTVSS VL: QIVLTQSPAIMSASLGERVTMTCTASLSVSSSFLHWYQQKPGSSPQLWIYSTSNLASGVPARFSGSGSGTSYSLTISSMEAEDAATYYCHQYHHSPYIYTFGGGTKLEIK
No

Answer whether OD450 nm of KB001 mouse Fab VL T52S (Fab, V domains shown) VH: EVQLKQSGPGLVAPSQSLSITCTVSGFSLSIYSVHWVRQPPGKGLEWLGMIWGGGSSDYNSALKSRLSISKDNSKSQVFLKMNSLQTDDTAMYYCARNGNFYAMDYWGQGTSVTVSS VL: QIVLTQSPAIMSASLGERVTMTCTASSSVSSSFLHWYQQKPGSSPQLWIYSSSNLASGVPARFSGSGSGTSYSLTISSMEAEDAATYYCHQYHHSPYIYTFGGGTKLEIK is greater than or equal to 0.8.
Yes
